EXPERIMENTAL_TARGET: recombinant human PAI-1 (Homo sapiens, UniProt P05121)
Construct: purchased Molecular Innovations, Inc
Sequence (P05121 24-402): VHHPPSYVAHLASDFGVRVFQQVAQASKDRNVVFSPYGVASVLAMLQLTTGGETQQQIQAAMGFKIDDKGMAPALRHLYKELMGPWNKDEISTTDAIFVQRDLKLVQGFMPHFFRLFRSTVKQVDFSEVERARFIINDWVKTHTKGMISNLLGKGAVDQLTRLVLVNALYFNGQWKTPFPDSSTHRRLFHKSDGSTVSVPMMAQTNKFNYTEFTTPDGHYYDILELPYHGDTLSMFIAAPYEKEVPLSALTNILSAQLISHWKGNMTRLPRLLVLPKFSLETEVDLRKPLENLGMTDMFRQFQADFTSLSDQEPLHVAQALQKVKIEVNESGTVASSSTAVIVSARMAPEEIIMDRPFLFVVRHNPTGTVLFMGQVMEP
PROTOCOL_SUMMARY: Test Example 1: human PAI-1 inhibitory activity (tPA fluorogenic substrate, pH 7.5 Tris buffer)
Assay type: biochemical
TEST_PARAMETERS: Compound Concentration 5 μM; Tris buffer
MEASUREMENT_TYPE: Inhibition Rate of PAI-1 Activity (%)

CC(C)(C)c1ccc(COc2ccc(-c3ccc(F)cc3)cc2CCC(=O)O)cc1: 24%
COc1ccccc1-c1ccc(OCc2ccc(C(C)(C)C)cc2)c(/C=C/C(=O)O)c1: 21%
CC(C)(C)c1ccc(-c2ccc(Oc3ccc(-c4ccc(OC(F)(F)F)cc4)cc3CCC(=O)O)c(CCC(=O)O)c2)cc1: 77%
